Catalogue of TGI readings, one per entry.
- System: T-47D breast
- ASSAY PROTOCOL: NCI tumour cell line growth inhibition, 48 h

{"columns": ["MOLECULE", "MEASURED ON", "TGI"],
 "data": [
  ["O=C1CCC(C(=O)O)C2=C1CCCC2 (stereo not given)", "T-47D breast", "> 100 µM"],
  ["O=[N+]([O-])c1ccc2scc3c4ccccc4nc-3c2c1", "T-47D breast", "3.32 µM"],
  ["CCC1([N+](=O)[O-])CC2C=CC1C2 (stereo not given)", "T-47D breast", "> 100 µM"],
  ["COC1=C(OC)C23CCc4ccc(OC)c(O)c4C2(CCN3)CC1=O (stereo not given)", "T-47D breast", "> 100 µM"],
  ["CC1SC(c2ccc(Cl)c(Cl)c2)N(NC(=O)C(O)c2ccccc2)C1=O (stereo not given)", "T-47D breast", "> 100 µM"],
  ["Cn1cc(C2=C(c3c4n(c5ccccc35)CCN(C(N)=S)C4)C(=O)NC2=O)c2ccccc21", "T-47D breast", "> 25 µM"],
  ["[N-]=[N+]=NCCCn1c2c(c3ccccc3c1=O)C(=O)c1cc(Br)ccc1-2", "T-47D breast", "> 100 µM"],
  ["COc1cc(NC(=O)c2ccc(C(F)(F)F)nc2Nc2ccc(Cl)cc2C)cc(OC)c1OC", "T-47D breast", "21.3 µM"],
  ["CCOc1ccc(NC(=O)/C(=N\\N)C(C(=O)OC)c2nc3ccc(Cl)cc3[nH]c2=O)cc1 (stereo not given)", "T-47D breast", "> 100 µM"],
  ["COc1ccc2c(=O)c(-c3cc4c(cc3OC)OCO4)coc2c1", "T-47D breast", "> 100 µM"]
]}
